biological target: Neuronal acetylcholine receptor; alpha3/beta4 (Rattus norvegicus) (UniProt P04757+P12392); test: Displacement of [3H]epibatidine from rat alpha3beta4 nAChR extracted from HEK293 cell membrane assessed as residence time incubated for 60 to 120 mins by liquid scintillation counting method; assay type: cell membranes; settings: filed as agonist, time lower 60.0 min, time upper […]
quantity-name: TIME
Returns: string containing the numeric result and its unit.

>  <molecule>
O=c1cccc2n1C[C@@H]1CNC[C@H]2C1 [CYTISINICLINE]

>  <obs-value>
0.075 h

$$$$

Q. Please look up its TIME: C[N+](C)(C)CCOC(N)=O [CARBAMOYLCHOLINE]
A. 0.06 h

Q. Also check CCOc1cncc(/C=C/CCNC)c1
A. 0.0283 h

Q. Now consider Cc1ncccc1OC[C@@H]1CCCN1 [POZANICLINE] .
A. 0.04 h

Q. Same again, this time with OCCCCC#Cc1cncc(OC[C@@H]2CCN2)c1
A. 0.0467 h

Q. Can you handle Clc1ccc(C2CC3CCC2N3)cn1 (racemic) next?
A. 0.103 h

Q. CN1CCC[C@H]1c1cccnc1 , same question.
A. 0.0683 h

* * *

target: Neuronal acetylcholine receptor; alpha3/beta4 (Rattus norvegicus) (UniProt P04757+P12392); assay: Displacement of [3H]epibatidine from rat alpha3beta4 nAChR extracted from HEK293 cell membrane assessed as association binding constant (Kon) incubated for 60 to 120 mins by liquid scintillation counting method; assay type: cell membranes; conditions: filed as agonist, time lower 60.0 min, time upper […]
Attribute: K
API: value field is a number in M⁻¹ s⁻¹; no unit string.

Consider the following illustrative entries.
>  <compound>
CN1CCC[C@H]1c1cccnc1

>  <assay-system>
Neuronal acetylcholine receptor; alpha3/beta4 (Rattus norvegicus) (UniProt P04757+P12392)

>  <K / M⁻¹ s⁻¹>
33300

$$$$
>  <compound>
O=c1cccc2n1C[C@@H]1CNC[C@H]2C1

>  <assay-system>
Neuronal acetylcholine receptor; alpha3/beta4 (Rattus norvegicus) (UniProt P04757+P12392)

>  <K / M⁻¹ s⁻¹>
33300

$$$$

Now for another entry.
Q. Please report the recorded K for Clc1ccc(C2CC3CCC2N3)cn1 (racemic) .
A. 2.17e+07

* * *

Items are presented alongside their recorded K.
molecular target: Neuronal acetylcholine receptor; alpha3/beta4 (Rattus norvegicus) (UniProt P04757+P12392); test: Displacement of [3H]epibatidine from rat alpha3beta4 nAChR extracted from HEK293 cell membrane assessed as association binding constant (Kon) incubated for 60 to 120 mins by liquid scintillation counting method; type: cell membranes; conditions: filed as agonist, time lower 60.0 min, time upper […]

These solved cases illustrate the format of a correct answer.
>  <molecule>
CCOc1cncc(/C=C/CCNC)c1

>  <K>
0.064 10^-3/nM/min

$$$$
>  <molecule>
C[N+](C)(C)CCOC(N)=O

>  <K>
0.31 10^-3/nM/min

$$$$
>  <molecule>
Cc1ncccc1OC[C@@H]1CCCN1

>  <K>
0.03 10^-3/nM/min

$$$$

Now consider a different molecule.
Q. Form field: reported K of OCCCCC#Cc1cncc(OC[C@@H]2CCN2)c1
A. 0.2 10^-3/nM/min

Provenance of the data: ChEMBL document CHEMBL6115022
